FYI, the data here is from ChEMBL document CHEMBL1201862.

Would you kindly list GI50 for each of these molecules?
- Test system: HCC 2998
- test: NCI tumour cell line growth inhibition, 48 h
The source made the active and inactive calls. No stated cut-off is given here; in the data, active = GI50 up to about 1.1 µM and inactive = higher.

Data request, read-out GI50, for `CCCC(=O)n1[nH]c(=O)n(C(C)(C)C)c1=O` > 100 µM (inactive)

Data request, read-out GI50, for `O=C(O)CCCc1ccc2ccccc2c1` > 100 µM (inactive)

Data request, read-out GI50, for `CC(=O)Nc1ccc(/C=C/C(=O)c2sc(-c3nc(C)c(C(=O)/C=C/c4ccc(NC(C)=O)cc4)s3)nc2C)cc1` > 100 µM (inactive)

Data request, read-out GI50, for `Cc1cc(Cc2cc(Cc3cc(C)cc(C(C)(C)C)c3O)c(C)cc2C)c(O)c(C(C)(C)C)c1` 13.5 µM (inactive)

Data request, read-out GI50, for CC(=O)O[C@@H]1C2=C(C3=C([O-])C4=CC=CC(=O)C4C(=O)C3=C2[N+]#N)[C@H](OC(C)=O)[C@@H](OC(C)=O)[C@]1(C)O (stereo not given in full) 0.262 µM (active)

Data request, read-out GI50, for `O=c1ccccc2cccc(O)c12` > 100 µM (inactive)

Data request, read-out GI50, for `Cc1cccc(C(C)(C)C)c1NC(=O)/C(Cc1nc2ccc([N+](=O)[O-])cc2nc1O)=N\NC(=O)C[N+](C)(C)C` > 100 µM (inactive)

Data request, read-out GI50, for `NS(=O)(=O)c1cc2c(cc1Cl)NC(C(=O)NNC(=O)c1ccncc1)=NS2(=O)=O` > 100 µM (inactive)

Data request, read-out GI50, for `COc1cccc2c1/c(=C/c1ccc(N(C)C)cc1)c1cc(-c3ccccc3)[n+](C)n12` 0.0348 µM (active)

Data request, read-out GI50, for `CCOC(=N)CC(=O)Nc1ccccc1CC` 98.9 µM (inactive)

====

- System: NCI-H460
- test: NCI tumour cell line growth inhibition, 48 h
Calls of active or inactive are those of the source. Rule as the data show it: active = GI50 up to about 1.1 µM and inactive = higher.
Permitted responses: T = active, F = inactive

Which outcome did this test record for the molecule `O=c1oc2ccccc2cc1-c1csc(Nc2ccc(F)cc2)n1` ? F

Which outcome did this test record for the molecule O=C(NC1CCCC1=O)c1ccccc1 (stereo not given) ? F

Which outcome did this test record for the molecule CC(Oc1ccc2cc(C(=O)c3ccccc3)c(=O)oc2c1)C(=O)O (stereo not given) ? F

Which outcome did this test record for the molecule COc1ccc(OCC(=O)O)c2c1CCC(C)C2=O (stereo not given) ? F

Which outcome did this test record for the molecule `COC(=O)/C(=C/c1ccc(OC)cc1)C(C(=O)O)=C1CCCCC1` ? F

Which outcome did this test record for the molecule `O=C(/C=C/c1c[nH]c2ccccc12)c1ccccc1O` ? F

Which outcome did this test record for the molecule `COc1ccc(SS(=O)(=O)c2ccc(OC)cc2)cc1` ? F

Which outcome did this test record for the molecule `O=C1Nc2c(Cl)cc(Cl)cc2C1=O` ? F

Which outcome did this test record for the molecule `CS(=O)(=O)OCCN(CCOS(C)(=O)=O)c1ccc(/C=N/c2ccc(-c3csc(Cc4ccccc4)n3)cc2)c(Cl)c1` ? T

Which outcome did this test record for the molecule CC(=O)O[C@H]1C(=O)[C@@]2(C)C(C(OC(=O)c3ccccc3)[C@]3(O)CC(OC(=O)C(O)C(NC(=O)c4ccccc4)c4ccc(C)cc4)C(C)=C1C3(C)C)[C@]1(OC(C)=O)CO[C@@H]1C[C@@H]2O (stereo not given in full) ? T
